Tested on: Alternaria solani
PROCEDURE TEXT: Fungicidal activity against Alternaria solani assessed as inhibition of mycelium growth at 50 ug/mL by mycelium growth rate method
Format: functional
PROPERTY: inhibition at 50 µg/mL (%)
The reply should contain only the number, in %.

Consider the worked cases shown below.
# SMILES REPR, PROPERTY, UNITS LABEL, VAL
data = [
    ("COC(=O)c1cccc2nc3c(NC(=O)CCCCl)c([N+](=O)[O-])ccc3nc12", "inhibition at 50 µg/mL", "%", 20.5),
    ("COC(=O)c1cccc2nc3ccc(N)cc3nc12", "inhibition at 50 µg/mL", "%", 10),
    ("Nc1cccc2nc3c(C(=O)O)cccc3nc12", "inhibition at 50 µg/mL", "%", 0),
    ("COC(=O)c1cccc2nc3c(S(=O)(=O)c4ccc([N+](=O)[O-])cc4)cccc3nc12", "inhibition at 50 µg/mL", "%", 13.8),
]

Enquiry: State the recorded inhibition at 50 µg/mL for this entry: CCCCOC(=O)c1cccc2nc3cc(N)ccc3nc12
Return: 43.3

Enquiry: State the recorded inhibition at 50 µg/mL for this entry: CCCCOC(=O)c1cccc2nc3cc(N)c(OCCCC)cc3nc12
Return: 13.3

Cited source for all entries: ChEMBL document CHEMBL3045119
